Origin of values: PubChem BioAssay (EPA / NIEHS)

# Measurement Protocol: CCTE_Mundy_HCI_Cortical_Synap_Neur_Matur_NeuriteLength: CCTE's Synaptogenesis and Neurite Maturation Assay in rat cortical cells for Neurite Length, Mundy Lab (AID 2284214)
# Method: CCTE_Mundy_HCI_Cortical_Synap&Neurite_Matur is a multiplexed, cell-based-readout assay that uses rat primary cortical cells with measurements taken at 288.33 hours after chemical dosing in a microplate: 96-well plate.CCTE_Mundy_HCI_Cortical_Synap_Neur_Matur_NeuriteLength is one of eight components of the CCTE_Mundy_HCI_Cortical_Synap&Neurite_Matur assay. It measures synaptogenesis and neurite maturation related to neurite length using High Content Imaging of fluorescently labelled markers.[…] […]
Calls of active or inactive are those of the source. How the source made its calls: active means hit-call score of the fitted dose curve at least 0.9, where 1 is the maximum; inactive means score below 0.9.
Outcomes you can answer with include only these: 1 = active, 0 = inactive

Exercise: Could you kindly confirm the outcome this assay logged for CN(C)CCC(c1ccc(Cl)cc1)c1ccccn1 (configuration not stated) ?
Key: 0

Exercise: Could you kindly confirm the outcome this assay logged for "CC1(C)S[C@@H]2[C@H](NC(=O)[C@H](N)c3ccccc3)C(=O)N2[C@H]1C(=O)O" ?
Key: 0

Exercise: Could you kindly confirm the outcome this assay logged for "CC1(C)S[C@@H]2[C@H](NC(=O)[C@H](N)c3ccc(O)cc3)C(=O)N2[C@H]1C(=O)O" ?
Key: 0
